target: human CB2 receptors (Homo sapiens); construct: expressed in transfected cells; host or cells: CHO cells; test: cAMP assay; type: cell-based
Sequence (P34972 whole entry): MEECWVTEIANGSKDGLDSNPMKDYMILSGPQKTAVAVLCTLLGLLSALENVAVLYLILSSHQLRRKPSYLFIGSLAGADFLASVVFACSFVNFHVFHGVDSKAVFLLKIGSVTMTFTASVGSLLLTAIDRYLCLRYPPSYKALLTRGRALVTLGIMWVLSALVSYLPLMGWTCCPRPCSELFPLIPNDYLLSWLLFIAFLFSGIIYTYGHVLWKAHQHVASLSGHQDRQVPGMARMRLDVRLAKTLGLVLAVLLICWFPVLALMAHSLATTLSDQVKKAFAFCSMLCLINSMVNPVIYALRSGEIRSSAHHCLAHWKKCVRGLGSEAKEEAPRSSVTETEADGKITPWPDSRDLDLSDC
Classification scheme (EC50): L (below 0.9 nM), M (0.9 nM to below 20 nM), H (20 nM or more)

In: Which EC50 band matches CC(C)(C)c1nc(N2CCC(F)(F)C2)c2nn(Cc3cccnc3)nc2n1 ?
Out: M

In: Which EC50 band matches CC(C)(C)c1nc(N2CCC(F)(F)C2)c2nn(Cc3cc(Cl)ccc3Cl)nc2n1 ?
Out: M

In: Which EC50 band matches CC(C)(C)c1nc(N2CCC(F)(F)C2)c2nn(Cc3ccccc3OC(F)(F)F)nc2n1 ?
Out: L

In: Which EC50 band matches Cn1nnnc1Cn1nc2nc(C(C)(C)C)nc(N3CCC(O)C3)c2n1 (stereo not drawn) ?
Out: H

In: Which EC50 band matches CC(C)(C)c1nc(N2CCC(F)(F)C2)c2nn(CCc3ccccc3Cl)nc2n1 ?
Out: L

In: Which EC50 band matches Cc1nonc1Cn1nc2nc(C(C)(C)C)nc(N3CC[C@@](C)(O)C3)c2n1 ?
Out: H

In: Which EC50 band matches CC(C)(C)c1nc(N2CCC(F)(F)C2)c2nn(Cc3cc(F)ccc3Cl)nc2n1 ?
Out: L

In: Which EC50 band matches Cc1nonc1Cn1nc2nc(C(C)(C)C)nc(N3CCC(F)(F)C3)c2n1 ?
Out: L

In: Which EC50 band matches COc1ccc(F)c(Cn2nc3nc(C(C)(C)C)nc(N4CCC(F)(F)C4)c3n2)c1Cl ?
Out: M

In: Which EC50 band matches CC(C)(C)Nc1nc(N2CCC(F)(F)C2)c2nn(Cc3ccccc3C(F)(F)F)nc2n1 ?
Out: H

In: Which EC50 band matches CC(C)(C)c1nc(N2CCC(F)(F)C2)c2nn(Cc3ccncc3Cl)nc2n1 ?
Out: L

In: Which EC50 band matches CC(C)(C)c1nc(N2CC3(COC3)C2)c2nn(Cc3ncccc3Cl)nc2n1 ?
Out: M

In: Which EC50 band matches CC(C)(C)c1nc(N2CCC(F)(F)C2)c2nn([C@H]3CCOC3)nc2n1 ?
Out: M

In: Which EC50 band matches CC(C)(C)c1nc(N2CC[C@@](C)(O)C2)c2nn(Cc3ccccc3S(C)(=O)=O)nc2n1 ?
Out: H

In: Which EC50 band matches C[C@@H](c1ccccc1Cl)n1nc2nc(C(C)(C)C)nc(N3CCC(F)(F)C3)c2n1 ?
Out: L

In: Which EC50 band matches Cc1nnc(Cn2nc3nc(C(C)(C)C)nc(N4CC(F)(F)C(F)(F)C4)c3n2)o1 ?
Out: M

In: Which EC50 band matches CC(C)(C)c1nc(N2CC[C@](C)(O)C2)c2nn(Cc3ccccc3C(F)(F)F)nc2n1 ?
Out: L

In: Which EC50 band matches Cc1c(Cn2nc3nc(C(C)(C)C)nc(N4CCC(F)(F)C4)c3n2)ccc[n+]1[O-] ?
Out: H

In: Which EC50 band matches CC(C)(C)c1nc(N2CCC(F)(F)C2)c2nn(CCc3ccc(Cl)cc3)nc2n1 ?
Out: H

In: Which EC50 band matches Cn1c(Cn2nc3nc(C(C)(C)C)nc(N4CCC(F)(F)C4)c3n2)nnc1S(C)(=O)=O ?
Out: H

In: Which EC50 band matches CC(C)(C)c1nc(N2CC[C@H](O)C2)c2nn(Cc3cccnc3Cl)nc2n1 ?
Out: M

In: Which EC50 band matches CC(C)(C)c1nc(N2CC[C@@](C)(O)C2)c2nn(Cc3ccccc3C(F)(F)F)nc2n1 ?
Out: M

In: Which EC50 band matches CC(C)(C)c1nc(N2CCC(F)(F)C2)c2nn(Cc3cccc(Cl)c3)nc2n1 ?
Out: M

In: Which EC50 band matches CC(C)(C)c1nc(N2CCC(F)(F)C2)c2nn(CC(=O)c3ccc(Cl)cc3)nc2n1 ?
Out: M

In: Which EC50 band matches CC(C)(C)c1nc(N2CCC(F)(F)C2)c2nn(CCO)nc2n1 ?
Out: H

In: Which EC50 band matches CC(C)(C)c1nc(N2CCC(F)(F)C2)c2nn(Cc3c(Cl)ccc(F)c3Cl)nc2n1 ?
Out: M

In: Which EC50 band matches CC(C)(C)c1nc(N2CCOCC2)c2nn(Cc3ccc(F)cc3Cl)nc2n1 ?
Out: M

In: Which EC50 band matches Cc1nonc1Cn1nc2nc(O[C@@H](C)C(F)(F)F)nc(N3CCC(F)(F)C3)c2n1 ?
Out: M

In: Which EC50 band matches CC(C)(C)c1nc(N2CCC(F)(F)C2)c2nn(Cc3ccccc3C(F)(F)F)nc2n1 ?
Out: L

In: Which EC50 band matches CC(C)(C)c1nc(N2CCC(F)(F)C2)c2nn(Cc3cnccc3Cl)nc2n1 ?
Out: L

In: Which EC50 band matches CC(C)(C)c1nc(N2CC[C@@](C)(O)C2)c2nn(CCC(F)(F)F)nc2n1 ?
Out: H
